measurement_target: STAT3 (Homo sapiens)
Construct: Recombinant STAT3 protein (STAT3(G127-I722))
Sequence (P40763 127-722): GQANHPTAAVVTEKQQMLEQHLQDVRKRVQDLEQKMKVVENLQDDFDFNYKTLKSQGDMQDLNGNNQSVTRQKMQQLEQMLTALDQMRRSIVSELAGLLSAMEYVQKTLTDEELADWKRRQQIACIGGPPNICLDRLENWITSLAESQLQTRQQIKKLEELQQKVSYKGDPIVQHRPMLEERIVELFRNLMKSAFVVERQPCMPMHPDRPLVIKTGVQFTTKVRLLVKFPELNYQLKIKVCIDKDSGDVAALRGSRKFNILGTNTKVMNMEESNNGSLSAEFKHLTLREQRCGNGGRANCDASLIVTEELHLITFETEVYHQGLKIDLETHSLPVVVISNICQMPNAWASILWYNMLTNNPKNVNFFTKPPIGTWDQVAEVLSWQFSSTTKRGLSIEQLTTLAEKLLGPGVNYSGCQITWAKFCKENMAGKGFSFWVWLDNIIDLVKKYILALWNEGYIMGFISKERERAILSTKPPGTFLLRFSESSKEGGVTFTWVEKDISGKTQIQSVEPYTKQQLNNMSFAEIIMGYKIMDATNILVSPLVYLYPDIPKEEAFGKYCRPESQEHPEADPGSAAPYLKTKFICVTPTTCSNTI
method: STAT3 Fluorescence Polarization (FP) Assay
pIC50: −log10 of the molar value.

| compound | pIC50 |
| --- | --- |
| Cn1c(=O)n(C2CCC(=O)NC2=O)c2ccc(C#CCCC3CCN(c4ccncc4C4CN(C(=O)[C@@H]5CC[C@@H]6CCC[C@H](NC(=O)c7cc8cc(C(F)(F)P(=O)(O)O)ccc8s7)C(=O)N65)C4)CC3)cc21 (some centres unmarked) [Compound 34] | > 7.00 |
| O=C(COc1cccc2c1C(=O)N(C1CCC(=O)NC1=O)C2=O)NCCOCCOCC(=O)NC1(c2ccccn2)CN(C(=O)[C@@H]2CC[C@H]3CCCC[C@H](NC(=O)c4cc5cc(C(F)(F)P(=O)(O)O)ccc5s4)C(=O)N32)C1 (some centres unmarked) [Compound 32] | > 7.00 |

###

measurement_target: pSTAT3 (Homo sapiens)
Sequence (P40763 whole entry): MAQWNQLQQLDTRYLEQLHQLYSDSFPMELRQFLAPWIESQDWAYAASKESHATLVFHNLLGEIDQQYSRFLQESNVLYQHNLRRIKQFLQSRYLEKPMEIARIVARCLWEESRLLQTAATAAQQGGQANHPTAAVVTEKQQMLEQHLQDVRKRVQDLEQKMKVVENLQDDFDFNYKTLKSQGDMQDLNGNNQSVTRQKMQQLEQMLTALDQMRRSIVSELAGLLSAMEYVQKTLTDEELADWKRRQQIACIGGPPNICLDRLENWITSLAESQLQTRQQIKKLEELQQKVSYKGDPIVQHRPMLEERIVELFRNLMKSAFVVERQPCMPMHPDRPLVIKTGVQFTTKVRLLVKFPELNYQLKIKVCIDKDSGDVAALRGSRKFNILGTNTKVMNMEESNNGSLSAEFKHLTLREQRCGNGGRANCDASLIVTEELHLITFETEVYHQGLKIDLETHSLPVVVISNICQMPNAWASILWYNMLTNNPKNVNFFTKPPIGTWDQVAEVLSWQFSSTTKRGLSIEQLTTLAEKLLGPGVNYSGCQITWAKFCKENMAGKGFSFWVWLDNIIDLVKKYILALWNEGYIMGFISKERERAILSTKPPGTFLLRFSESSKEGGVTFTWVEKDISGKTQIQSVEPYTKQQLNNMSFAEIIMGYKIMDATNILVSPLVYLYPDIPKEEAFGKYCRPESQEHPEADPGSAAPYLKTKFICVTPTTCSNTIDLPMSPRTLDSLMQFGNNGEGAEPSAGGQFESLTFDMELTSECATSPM
method: MSD-pSTAT-PBMC Assay (pSTAT3, IL-6 stimulated)
Assay type: cell-based
recorded_conditions: read-out: pSTAT3 IC50, compound 3 hrs, then 10 ng/mL IL-6 10 min, pY705-STAT3

| compound | measurement_target | IC50 |
| --- | --- | --- |
| CCCC(=O)SCCOP(=O)(OCCSC(=O)CCC)C(F)(F)c1ccc2sc(C(=O)N[C@H]3CCC[C@H]4CC[C@@H](C(=O)N5CC(c6cnccc6N6CCC(C(=O)N[C@H](C(=O)N7C[C@H](O)C[C@H]7C(=O)NCc7ccc(-c8scnc8C)cc7)C(C)(C)C)CC6)C5)N4C3=O)cc2c1 | pSTAT3 (Homo sapiens) | 100 to 1000 nM |
| O=C(COc1cccc2c1C(=O)N(C1CCC(=O)NC1=O)C2=O)NCCOCCOCC(=O)NC1(c2ccccn2)CN(C(=O)[C@@H]2CC[C@H]3CCCC[C@H](NC(=O)c4cc5cc(C(F)(F)P(=O)(O)O)ccc5s4)C(=O)N32)C1 (stereo partly drawn) | pSTAT3 (Homo sapiens) | > 3000 nM |
| Cc1ncsc1-c1ccc([C@H](C)NC(=O)[C@@H]2C[C@@H](O)CN2C(=O)[C@@H](NC(=O)COCCOCCC(=O)NC2(c3ccccn3)CN(C(=O)[C@@H]3CC[C@H]4CCCC[C@H](NC(=O)c5cc6cc(C(F)(F)P(=O)(O)O)ccc6s5)C(=O)N43)C2)C(C)(C)C)cc1 | pSTAT3 (Homo sapiens) | > 3000 nM |
| CCCOC(=O)[C@H](C)NP(=O)(Oc1ccccc1)[C@@H](F)c1ccc2sc(C(=O)N[C@H]3CCC[C@H]4CC[C@@H](C(=O)N5CC(c6cnccc6N6CCC(CCC#Cc7ccc8c(c7)n(C)c(=O)n8C7CCC(=O)NC7=O)CC6)C5)N4C3=O)cc2c1 (stereo partly drawn) | pSTAT3 (Homo sapiens) | < 100 nM |
| O=C(COc1cccc2c1C(=O)N(C1CCC(=O)NC1=O)C2=O)NCCOCCOCCC(=O)NC1(c2ccccn2)CN(C(=O)[C@@H]2CC[C@H]3CCCC[C@H](NC(=O)c4cc5cc(C(F)(F)P(=O)(O)O)ccc5s4)C(=O)N32)C1 (stereo partly drawn) | pSTAT3 (Homo sapiens) | > 3000 nM |
| Cn1c(=O)n(C2CCC(=O)NC2=O)c2ccc(C#CCCC3CCN(c4ccncc4C4CN(C(=O)[C@@H]5CC[C@@H]6CCC[C@H](NC(=O)c7cc8cc([C@@H](F)P(=O)(O)O)ccc8s7)C(=O)N65)C4)CC3)cc21 (stereo partly drawn) | pSTAT3 (Homo sapiens) | < 100 nM |
| CCCC(=O)SCCOP(=O)(OCCSC(=O)CCC)C(F)(F)c1ccc2sc(C(=O)N[C@H]3CCC[C@H]4CC[C@@H](C(=O)N5CC(c6cnccc6N6CCN(C(=O)COc7ccc(C8CCC(=O)NC8=O)cc7)CC6)C5)N4C3=O)cc2c1 (stereo partly drawn) | pSTAT3 (Homo sapiens) | < 100 nM |
| Cc1ncsc1-c1ccc([C@H](C)NC(=O)[C@@H]2C[C@@H](O)CN2C(=O)[C@@H](NC(=O)COCCOCC(=O)NC2(c3ccccn3)CN(C(=O)[C@@H]3CC[C@H]4CCCC[C@H](NC(=O)c5cc6cc(C(F)(F)P(=O)(O)O)ccc6s5)C(=O)N43)C2)C(C)(C)C)cc1 | pSTAT3 (Homo sapiens) | > 3000 nM |
| CCCOC(=O)[C@H](C)NP(=O)(Oc1ccccc1)[C@H](F)c1ccc2sc(C(=O)N[C@H]3CCC[C@H]4CC[C@@H](C(=O)N5CC(c6cnccc6N6CCC(CCC#Cc7ccc8c(c7)n(C)c(=O)n8C7CCC(=O)NC7=O)CC6)C5)N4C3=O)cc2c1 (stereo partly drawn) | pSTAT3 (Homo sapiens) | < 100 nM |

###

Measured pIC50, listed per entry.
measurement_target: pSTAT3 (Homo sapiens)
method: MSD-pSTAT-PBMC Assay (pSTAT3, IL-6 stimulated)
Format: cell-based
recorded_conditions: compound 3 hrs, then 10 ng/mL IL-6 10 min, pY705-STAT3, read-out: pSTAT3 IC50
pIC50: −log10 of the molar value.
measured_metric: pIC50

| compound | measurement_target | val |
| --- | --- | --- |
| Cc1ncsc1-c1ccc(CNC(=O)[C@@H]2C[C@@H](O)CN2C(=O)[C@@H](NC(=O)C2CCN(c3ccncc3C3CN(C(=O)[C@@H]4CC[C@@H]5CCC[C@H](NC(=O)c6cc7cc(C(F)(F)P(=O)(O)O)ccc7s6)C(=O)N54)C3)CC2)C(C)(C)C)cc1 [Compound 8] | pSTAT3 (Homo sapiens) | 5.52 to 6.00 |
| CCCC(=O)SCCOP(=O)(OCCSC(=O)CCC)C(F)(F)c1ccc2sc(C(=O)N[C@H]3CCC[C@H]4CC[C@@H](C(=O)N5CC(c6cnccc6OCCCCN[C@H](C(=O)N6C[C@H](O)C[C@H]6C(=O)NCc6ccc(-c7scnc7C)cc6)C(C)(C)C)C5)N4C3=O)cc2c1 [Compound 1] | pSTAT3 (Homo sapiens) | 6.00 to 7.00 |
| Cn1c(=O)n(C2CCC(=O)NC2=O)c2ccc(C#CCCC3CCN(c4ccncc4C4CN(C(=O)[C@@H]5CC[C@@H]6CCC[C@H](NC(=O)c7cc8cc(C(F)P(=O)(O)O)ccc8s7)C(=O)N65)C4)CC3)cc21 (some centres unmarked) [Compound 36] | pSTAT3 (Homo sapiens) | 6.00 to 7.00 |
| Cn1c(=O)n(C2CCC(=O)NC2=O)c2ccc(C#CCCC3CCN(c4ccncc4C4CN(C(=O)[C@@H]5CC[C@@H]6CCC[C@H](NC(=O)c7cc8cc(C(F)(F)P(=O)(OCCSC(=O)C(C)(C)C)OCCSC(=O)C(C)(C)C)ccc8s7)C(=O)N65)C4)CC3)cc21 (some centres unmarked) [Compound 35] | pSTAT3 (Homo sapiens) | > 7.00 |
| O=C1CCC(c2ccc(OCCOCCOc3ccncc3C3CN(C(=O)[C@@H]4CC[C@@H]5CCC[C@H](NC(=O)c6cc7cc(C(F)(F)P(=O)(O)O)ccc7s6)C(=O)N54)C3)cc2)C(=O)N1 (some centres unmarked) [Compound 11] | pSTAT3 (Homo sapiens) | < 5.52 |

###

measurement_target: STAT6 (Homo sapiens, UniProt P42226)
Construct: Recombinant STAT6 protein (STAT6(W123-T658))
Sequence (P42226 123-658): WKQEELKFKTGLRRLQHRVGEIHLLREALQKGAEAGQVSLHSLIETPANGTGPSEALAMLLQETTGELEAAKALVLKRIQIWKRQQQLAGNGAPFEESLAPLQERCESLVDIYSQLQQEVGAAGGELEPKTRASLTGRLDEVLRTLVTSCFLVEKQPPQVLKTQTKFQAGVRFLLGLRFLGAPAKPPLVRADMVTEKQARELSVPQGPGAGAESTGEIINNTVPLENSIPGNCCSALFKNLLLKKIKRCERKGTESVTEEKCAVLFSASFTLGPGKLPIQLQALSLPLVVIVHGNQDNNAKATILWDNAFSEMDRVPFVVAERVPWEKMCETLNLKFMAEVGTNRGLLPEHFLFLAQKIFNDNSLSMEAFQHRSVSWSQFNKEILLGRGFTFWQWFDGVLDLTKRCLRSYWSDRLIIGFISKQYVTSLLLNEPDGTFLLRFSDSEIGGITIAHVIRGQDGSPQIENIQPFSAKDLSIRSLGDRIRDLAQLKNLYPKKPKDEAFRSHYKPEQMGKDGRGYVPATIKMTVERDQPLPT
method: STAT6 Fluorescence Polarization (FP) Assay
measured_metric: IC50

| molecule | val |
| --- | --- |
| O=C1CCC(c2ccc(OCC(=O)N3CCN(c4ccncc4C4CN(C(=O)[C@@H]5CC[C@@H]6CCC[C@H](NC(=O)c7cc8cc(C(F)(F)P(=O)(O)O)ccc8s7)C(=O)N65)C4)CC3)cc2)C(=O)N1 (stereo partly drawn) | 3 to 30 µM |
| O=C1CCC(c2ccc(OCCCCCn3ccc([C@@H]4CN(C(=O)[C@@H]5CC[C@@H]6CCCC[C@H](NC(=O)c7cc8cc(C(F)(F)P(=O)(O)O)ccc8s7)C(=O)N65)C5(CC5)C4)cc3=O)cc2)C(=O)N1 (stereo partly drawn) | < 0.3 µM |
| Cc1ncsc1-c1ccc([C@H](C)NC(=O)[C@@H]2C[C@@H](O)CN2C(=O)[C@@H](NC(=O)COCCOCCC(=O)NC2(c3ccccn3)CN(C(=O)[C@@H]3CC[C@H]4CCCC[C@H](NC(=O)c5cc6cc(C(F)(F)P(=O)(O)O)ccc6s5)C(=O)N43)C2)C(C)(C)C)cc1 | 3 to 30 µM |
| Cn1c(=O)n(C2CCC(=O)NC2=O)c2ccc(C#CCCC3CCN(c4ccncc4C4CN(C(=O)[C@@H]5CC[C@@H]6CCC[C@H](NC(=O)c7cc8cc([C@@H](F)P(=O)(O)O)ccc8s7)C(=O)N65)C4)CC3)cc21 (stereo partly drawn) | > 30 µM |
| Cc1ncsc1-c1ccc(CNC(=O)[C@@H]2C[C@@H](O)CN2C(=O)[C@@H](NC(=O)C2CCN(c3ccncc3C3CN(C(=O)[C@@H]4CC[C@@H]5CCC[C@H](NC(=O)c6cc7cc(C(F)(F)P(=O)(O)O)ccc7s6)C(=O)N54)C3)CC2)C(C)(C)C)cc1 | 0.3 to 3 µM |
| Cn1c(=O)n(C2CCC(=O)NC2=O)c2ccc(C#CCCC3CCN(c4ccncc4C4CN(C(=O)[C@@H]5CC[C@@H]6CCC[C@H](NC(=O)c7cc8cc(C(F)P(=O)(O)O)ccc8s7)C(=O)N65)C4)CC3)cc21 (stereo partly drawn) | > 30 µM |
| CN(CCOc1ccc(C2CCC(=O)NC2=O)cc1)c1ccncc1C1CN(C(=O)[C@@H]2CC[C@@H]3CCC[C@H](NC(=O)c4cc5cc(C(F)(F)P(=O)(O)O)ccc5s4)C(=O)N32)C1 (stereo partly drawn) | 3 to 30 µM |
| N#CC1CN(C(=O)C2CCC3CCCCC(NC(=O)c4cc5cc(C(F)(F)P(=O)(O)O)ccc5s4)C(=O)N32)CC1c1cccc(N2CCN(c3ccc4c(c3)[nH]c(=O)n4C3CCC(=O)NC3=O)CC2)c1 (stereo not drawn) | < 0.3 µM |
| N#CC1CN(C(=O)C2CCC3CCCCC(NC(=O)c4cc5cc(C(F)(F)P(=O)(O)O)ccc5s4)C(=O)N32)CC1c1cccc(OCCCCCC#Cc2cccc3c2CN(C2CCC(=O)NC2=O)C3=O)c1 (stereo not drawn) | < 0.3 µM |
